Recorded pKd values for a group of binders are listed next.
# TARGET UNDER TEST: T1, P66 (rabbit ANGPTL7-his) (rabbit, UniProt G1T4P1 27-344)
# T1 construct: mature; also called rabbit ANGPTL7 protein
# T1 sequence: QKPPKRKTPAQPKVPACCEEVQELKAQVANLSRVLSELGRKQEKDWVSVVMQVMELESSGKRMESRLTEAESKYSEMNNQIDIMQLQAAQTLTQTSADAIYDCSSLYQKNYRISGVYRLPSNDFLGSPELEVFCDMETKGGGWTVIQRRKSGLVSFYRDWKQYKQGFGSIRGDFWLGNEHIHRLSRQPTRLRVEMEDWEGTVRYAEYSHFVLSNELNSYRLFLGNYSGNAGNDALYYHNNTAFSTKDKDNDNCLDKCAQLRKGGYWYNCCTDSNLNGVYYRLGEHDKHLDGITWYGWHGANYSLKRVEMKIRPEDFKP
# METHOD DESCRIPTION: BLI Octet HTX; IgG on AHC sensor; P66 at 200 nM; 1:1 fit
The read-out pKd is expressed as -log10 of concentration in moles per litre.

Previously resolved entries follow.
BINDER	pKd
ATX-P-424 (antibody, human IgG1, kappa, N297A, V domains shown, Full chains (VH + hIgG1-Agly-Fc)) VH: EVQLVESGGGLVKPGGSLRLSCAASGFTFSSYSMNWVRQAPGKGLEWVSSITSSSYIFYADSLKGRFTISRDNAKNSLFLQMNSLRAEDTAVYYCARDSNWGEAFDIWGQGTMVTVSS VL: DIQMTQSPSSLSASVGDRVTITCRASQGIRNDLGWYQQKPGKAPKRLIYAASSLPSGVPSRFSGSGSGTEFTLTISSLQPEDFAIYYCLQHNSYPWTFGQGTKVEIKR	8.33
ATX-P-438 (antibody, human IgG1, kappa, N297A, V domains shown, Full chains (VH + hIgG1-Agly-Fc)) VH: QVQLVESGGGVVQPGRSLRLSCAASGFTFSSYGMHWVRQAPGKGLEWVAIISYDGNNKYYADSVKGRFTISRDNSKNTLYLQMNSLRDEDTAVYYCAKERGYSSSSGYYYYYMDVWGKGTTVTVSS VL: EIVLTQSPGTLSLSPGERATLSCRASQSVSRSYLAWYQQKPGQAPRLLIIGASTRATGIPDRFSGSGSGTDFTLTISRLEPEDFAVYYCQQGQVIPPTFGQGTKVEIKR	8.15

Now consider a different binder.
input: GET /values?readout=pKd&item= ATX-P-442 (antibody, human IgG1, kappa, N297A, V domains shown, Full chains (VH + hIgG1-Agly-Fc)) VH: QITLKESGPTLVKPTQTLTLTCTFSGFSLSTSGVGVGWIRQPPGKALEWLALIYWNDDKRYSPSLKSRLTITKDTSKNLVVLTMTNMDPVDTATYYCARDYGDYWFFDLWGRGTPVTVSS VL: DIQMTQSPSSLSASVGDRVTITCRASQGISSYLAWYQQKPGKAPKLLIYAASSLQSGVPSRFSGSGSGTDFTLTISSLQPEDFATYYCQQSFSTPLTFGGGTKLEIKR
output: 8.47
